All figures here come from ChEMBL document CHEMBL1201862.

System: UACC-257
Experiment: NCI tumour cell line growth inhibition, 48 h
The source made the active and inactive calls. Cut-off read from the data, not from the text of the source: active = GI50 up to about 1.1 µM and inactive = higher. *1 amine or outer side, *2 acyl side, *3 side chain or, on linkers, in order; H or OH if unused. Where a SMILES comes first, the peptide text is derived from it. Bridges are numbered along the chain shown (N, C = ends). Roman numbers before positions name the chains, in order. [ ]: non-standard residue; d: D form. Actinocin(9to1) = Cc1c2oc3c(C)ccc(C(=O)[*:1])c3nc-2c(C(=O)[*:2])c(N)c1=O; Hyp = O=C(O)[CH]1C[CH](O)CN1; NMeV = CN[CH](C(=O)O)C(C)C; Sar = CNCC(=O)O
Write down the outcome that applies. Available outcomes: active, inactive

Cc1ccc(S(=O)(=O)N2C[C@](O)(c3ccccc3)[C@H]2C)cc1; inactive
Cc1c2oc3c(C)ccc(C(=O)NC4C(=O)NC(C(C)C)C(=O)N5CC(O)CC5C(=O)N(C)CC(=O)N(C)C(C(C)C)C(=O)OC4C)c3nc-2c(C(=O)NC2C(=O)NC(C(C)C)C(=O)N3CC(O)CC3C(=O)N(C)CC(=O)N(C)C(C(C)C)C(=O)OC2C)c(N)c1=O (stereo unspecified) (I: TV[Hyp][Sar][NMeV] / II: TV[Hyp][Sar][NMeV]; ester I:1-I:C, II:1-II:C; linker I:N-II:N via Actinocin(9to1); configuration not given here); active
CN(C)CCCNC(=O)CNC(=O)c1cc(NC(=O)c2cc(NC(=O)c3cc(NC(=O)CCNC(=O)c4cc(NC(=O)c5cc(NC(=O)c6nccn6C)cn5C)cn4C)cn3C)cn2C)cn1C; inactive
COC1OC2COC(c3ccccc3)OC2C(OC(=S)c2ccccc2)C1O (stereo unspecified); inactive
C[C@@H]1OCC(O)C([C@H]2OC(c3ccccc3)=N[C@H]2CO)O1 (stereo partly specified); inactive

Then there is this compound:
Q. // return assay outcome for COC(=O)C1=NC(=S)NC(c2ccccc2)C1c1nc2ccccc2s1 (stereo unspecified)
A. inactive

----------
System: A549
Assay: NCI tumour cell line growth inhibition, 48 h
The source made the active and inactive calls. Cut-off read from the data, not from the text of the source: active = GI50 up to about 1.1 µM and inactive = higher.
Quick reference for GI50 among some compounds

CC(C)N(C(=O)C12C3C4C5C3C1(C(=O)N(C(C)C)C(C)C)C5C42)C(C)C (stereo not given); > 58.9 µM (inactive)

Q. Find the recorded GI50 belonging to CCCCc1ccc(NC(=N)N)cc1 and report it.
A. 41.5 µM (inactive)

Q. Find the recorded GI50 belonging to CC1(C)OCC([C@H]2CC23SCCCS3)O1 (stereo not given in full) and report it.
A. > 100 µM (inactive)

Q. Find the recorded GI50 belonging to COC(=O)N/N=C(\c1ccccc1)c1ccc(OC)cc1 and report it.
A. > 100 µM (inactive)

Q. Find the recorded GI50 belonging to O=c1cc(/N=N\c2ccc(Cl)c(Cl)c2)[nH]c(=O)[nH]1 and report it.
A. 15.3 µM (inactive)

Q. Find the recorded GI50 belonging to Cc1ccc(S(=O)(=O)Nn2c(-c3ccccc3)c(C#N)c(-c3ccc(Cl)cc3)c(C#N)c2=O)cc1 and report it.
A. 26.9 µM (inactive)

Q. Find the recorded GI50 belonging to COc1ccc(NC(=O)CC/C(CC(=O)c2ccco2)=N/NC(N)=S)cc1 and report it.
A. > 100 µM (inactive)

Q. Find the recorded GI50 belonging to NC(Cc1ccccc1)C(=O)OCN1C(=O)C2C3C=CC(C2C1=O)C1C(=O)N(COC(=O)C(N)Cc2ccccc2)C(=O)C31 (stereo not given) and report it.
A. > 100 µM (inactive)

Q. Find the recorded GI50 belonging to N=C/N=C/C(=S)O[C@@H]1C(=O)N2CCC[C@@]23CCCC[C@@H]13 and report it.
A. > 12.5 µM (inactive)

Q. Find the recorded GI50 belonging to N#C/C(=C\c1cccc(Cl)c1Cl)c1ccccc1 and report it.
A. 66.8 µM (inactive)

----------
System: EKVX
Assay: NCI tumour cell line growth inhibition, 48 h
Active and inactive are the calls of the source. No stated cut-off is given here; in the data, active = GI50 up to about 1.1 µM and inactive = higher.
measure.name: GI50

Look over these answered cases.
C/C(=N\NC(N)=S)c1ccc(C2CCCCC2)cc1; 71.4 µM (inactive)
CCN(CC)CC1CCCCN1CC(=O)N1c2ccccc2NC(=O)CC1C (stereo not given); > 100 µM (inactive)
CCC1(c2ccc(N3C(=O)c4ccccc4C3=O)cc2)CCC(=O)NC1=O (stereo not given); > 10 µM (inactive)

Q. Find the recorded GI50 belonging to N#CCCN(CCN(CCN(C(=O)Nc1ccccc1)c1ccccc1)C(=O)Nc1ccccc1)C(=O)Nc1ccccc1 and report it.
A. 54.2 µM (inactive)

Q. Find the recorded GI50 belonging to CCN(CC)CCNC(=O)c1nn(-c2ccc(Cl)cc2)c2c1CCc1cc(OC)ccc1-2 and report it.
A. 10.2 µM (inactive)

Q. Find the recorded GI50 belonging to Cc1cn(C2CC(N)C(C(=O)NCC(=O)O)O2)c(=O)[nH]c1=O (stereo not given) and report it.
A. > 100 µM (inactive)

Q. Find the recorded GI50 belonging to CCOC(=O)CC(C)C1(C=O)CCCCC1=O (stereo not given) and report it.
A. > 100 µM (inactive)

Q. Find the recorded GI50 belonging to NC(=O)Cn1c(=O)[nH]c(=O)c2[nH]cnc21 and report it.
A. > 100 µM (inactive)

Q. Find the recorded GI50 belonging to CC12CC1C(c1cccc([N+](=O)[O-])c1)(c1cccc([N+](=O)[O-])c1)N=N2 (stereo not given) and report it.
A. 37.7 µM (inactive)

Q. Find the recorded GI50 belonging to COC(=O)C(Cc1ccc2c(c1)CCC2)Cc1ccc2c(c1)CCC2 and report it.
A. 44.8 µM (inactive)

----------
Quick reference for GI50 among some compounds
System: SN12C
Experiment: NCI tumour cell line growth inhibition, 48 h
The source made the active and inactive calls. Rule as the data show it: active = GI50 up to about 1.1 µM and inactive = higher. Square brackets hold non-standard residues; d marks the D form. Peptide text beside a SMILES is read from it. * marks the point of attachment. Phe(4-NO2) = N[CH](Cc1ccc([N+](=O)[O-])cc1)C(=O)O; Cbz = O=C(OCc1ccccc1)*

Nc1ccc2nc3n(c2c1)C(=O)c1ccccc1-3; > 100 µM (inactive)
CCOC(=O)CCC(NC(=O)OCc1ccccc1)C(=O)NC(CCC(=O)OCC)C(=O)NC(CCC(=O)OCC)C(=O)NC(CCC(=O)OCC)C(=O)NC(CCC(=O)OCC)C(=O)NC(Cc1ccc([N+](=O)[O-])cc1)C(=O)NC(CCC(=O)OCC)C(=O)NC(CCC(=O)OCC)C(=O)NC(CCC(=O)OCC)C(=O)NC(CCC(=O)OCC)C(=O)NC(CCC(=O)OCC)C(=O)OCC (stereo unspecified) (Cbz-E(OEt)E(OEt)E(OEt)E(OEt)E(OEt)[Phe(4-NO2)]E(OEt)E(OEt)E(OEt)E(OEt)E(OEt)-OEt; configuration not given here); > 50 µM (inactive)
CCOC(=O)CC(C)C1(C=O)CCCCC1=O (stereo unspecified); > 100 µM (inactive)
N#C/C(=C/n1c(=S)[nH]c2ccc([N+](=O)[O-])cc21)C(N)=O; > 100 µM (inactive)
CCC/N=C/c1cc(Cc2ccc(O)c(/C=N/CCC)c2)ccc1O; 3.82 µM (inactive)

# context switch: different compound, same GI50
Q. Find the recorded GI50 belonging to O=C(CCc1nnc2s/c(=C\c3ccc(Cl)c(Cl)c3)c(=O)n12)Nc1ccc(Cl)c(Cl)c1 and report it.
A. > 100 µM (inactive)

----------
Quick reference for GI50 among some compounds
Tested on: SF-539
Assay: NCI tumour cell line growth inhibition, 48 h
Active and inactive are the calls of the source. Rule as the data show it: active = GI50 up to about 1.1 µM and inactive = higher.

Look over these answered cases.
COC(=O)C1C(=O)NC2(C)CC1c1ccccc1O2 (centres undefined); > 100 µM (inactive)
N#C/C(=C\c1cccc(Cl)c1Cl)c1ccccc1; 35.1 µM (inactive)
C/C(=N\NC(N)=S)c1ccc(C2CCCCC2)cc1; 19.8 µM (inactive)
CC[C@@H]1OC2(C)CC(S(=O)(=O)c3ccccc3O)CC1O2 (some centres undefined); > 100 µM (inactive)
O=C1/C(=C/c2cc(O)c(O)c(O)c2)Oc2cc(O)cc(OC3OC(CO)C(O)C(O)C3O)c21 (centres undefined); > 100 µM (inactive)
Cc1c2ccncc2c(C)c2c1sc1ccccc12; 6.73 µM (inactive)
COc1ccc(-n2sc3ncccc3c2=O)cc1; 17.3 µM (inactive)
S=c1[nH]c2c(Cl)c(Cl)c(Cl)c(Cl)c2[nH]1; 12.1 µM (inactive)
O=S(=O)(c1ccccc1)c1ccc(/N=N/O)nc1; > 100 µM (inactive)
NC(CCc1nc(-c2ccccc2)cs1)C(=O)O (centres undefined); > 100 µM (inactive)

Q. Find the recorded GI50 belonging to N#Cc1nc(CCC(c2nc(C#N)c(N)o2)N2C(=O)c3ccccc3C2=O)oc1N (centres undefined) and report it.
A. > 100 µM (inactive)

Q. Find the recorded GI50 belonging to CCOc1cc(C2SCC(=O)N2c2ccc(Oc3ccc(Cl)cc3)c(Cl)c2)ccc1O (centres undefined) and report it.
A. 16.1 µM (inactive)

Q. Find the recorded GI50 belonging to Cc1nnc([C@@]2(C)CC[C@H]3[C@@H](CCC4=CC(=O)CC[C@@]43C)[C@@H]2CC#N)o1 and report it.
A. > 100 µM (inactive)

Q. Find the recorded GI50 belonging to COC(=O)[C@]1(C)CC[C@]2(C)CC[C@]3(C)C4[C@H]5Oc6c(cc7c(c6C)CCC6[C@@]7(C)CC[C@@]7(C)C8[C@](C)(CCC[C@@]8(C)C(=O)OC)CC[C@]67C)O[C@H]5c5c(cc6c(c5C)O[C@@]5(C)C7=CC=C8[C@@](C)(CC[C@@]9(C)[C@@H]%10C[C@](C)(C(=O)OC)CC[C@]%10(C)CC[C@]89C)C7=CC(=O)[C@@]5(O)O6)[C@]4(C)CC[C@@]3(C)C2C1 (some centres undefined) and report it.
A. 2.63 µM (inactive)
